# test-details: LDH chemical-induced cytotoxicity
# Type: cell-based
# particulars: Hek293 cells (kidney), Hek293 (human kidney)

{"compound-string": "O=C(OC[C@H]1O[C@@H](OC(=O)c2cc(O)c(O)c(O)c2)[C@H](OC(=O)c2cc(O)c(O)c(O)c2)[C@@H](OC(=O)c2cc(O)c(O)c(O)c2)[C@@H]1OC(=O)c1cc(O)c(O)c(O)c1)c1cc(O)c(O)c(O)c1", "CC50 at 24 h": "> 272 µM"}

----------
# test-details: LDH chemical-induced cytotoxicity
# Format: cell-based
# particulars: HepG2 cells (liver), HepG2 (human liver)

{"compound-string": "O=C(OC[C@H]1O[C@@H](OC(=O)c2cc(O)c(O)c(O)c2)[C@H](OC(=O)c2cc(O)c(O)c(O)c2)[C@@H](OC(=O)c2cc(O)c(O)c(O)c2)[C@@H]1OC(=O)c1cc(O)c(O)c(O)c1)c1cc(O)c(O)c(O)c1", "CC50 at 24 h": "> 272 µM"}
